Assay: Toxicity liver stage against HepG2, at 10uM
Type: cell-based
Design: test concentration 10 uM, cell line HepG2-A16-CD81EGFP
Settings: human, HepG2-A16-CD81EGFP cells; read-out: INHIBITION
Readout: cytotoxicity at 10 µM (%)

>>> reported("O=C(NCc1cc(F)ccc1F)Nc1ccn(CC(F)F)n1")
-3.06
>>> reported("COc1cc(OC)cc(C(=O)Nc2ncnc3c2CCC3)c1")
-179
>>> reported("COCCn1cc(C(=O)Nc2nc3c(s2)CCC3)c2ccccc21")
77.9
>>> reported("Cc1cccc(N2N=C(C(=O)NC(C)Cc3ccco3)CCC2=O)c1 (configuration not stated)")
-9.6
>>> reported("CCN(CC(=O)NC)S(=O)(=O)c1cnc2c(c1)c(C)nn2C")
-1.56
>>> reported("CCCS(=O)(=O)CC(=O)Nc1cc(CC(C)(C)C)n[nH]1")
2.43
>>> reported("Fc1ccc(-c2cnc(CN3CCn4c(nnc4C4CC4)C3)o2)cc1")
-13.4
>>> reported("CCN(C)S(=O)(=O)NCC1(c2cccc(Br)c2)CC1")
10.7
>>> reported("Cc1nn(CC(=O)O)c2nccc(-c3ccc(F)cc3)c12")
-4.17
>>> reported("CN(C)C(=O)COC[C@@H]1CC[C@H]2[C@H](CCN2c2ncccn2)O1")
15.6
>>> reported("CN1CCN2C(=O)N(c3ccccc3)C[C@H]2C1")
3.7
>>> reported("CCCN1CCc2nc(SCc3ccccc3F)[nH]c(=O)c2C1")
-2.62
>>> reported("Cc1ccc(S(=O)(=O)NC(=O)c2c(C)noc2C(C)C)cc1C")
-9.11
>>> reported("Cc1csc(CNc2cnn(CC(F)(F)F)c2)n1")
5.19
>>> reported("CC(C)N1[C@H](Cn2cncn2)C[C@@H]2CN(c3ncccn3)CC[C@@H]21")
3.17
>>> reported("Cc1cc2nccc(C3CCCN(C(=O)c4ccccc4F)C3)n2n1 (configuration not stated)")
13.6
>>> reported("COCC1CC2(CCN(CC3CC3)CC2)CN1Cc1csc(C)n1 (configuration not stated)")
4.26
>>> reported("COc1ccc(F)cc1-c1ccccc1CC1(C(=O)O)CCOCC1")
5.57
>>> reported("Cc1cccc(N2CCOCC3(C2)CN(c2ccccc2)C(=O)CO3)n1 (configuration not stated)")
-4.53
>>> reported("CC(C)S(=O)(=O)C(C)C(=O)NCc1cccc(N2CCCCC2=O)c1 (configuration not stated)")
-7.91
>>> reported("CC(C)c1nc(-c2cc(C(=O)NCCCO)c3ccccn23)cs1")
9.7
>>> reported("Cn1ncc2ccc(C3CCCN(Cc4cccs4)C3)nc21 (configuration not stated)")
1.88
>>> reported("COc1cc(/C=C/c2ncc(C(=O)O)s2)cc(Cl)c1OC")
8.01
>>> reported("O=C(c1cnccn1)N1CCN(Cc2cscn2)CC1")
-8.36
>>> reported("CN(CCc1ccccc1)Cc1cc(C(=O)N2CCCC2(C)C)no1")
-9.18
>>> reported("Cc1ccc(S(=O)(=O)N2CCCCC(N3CCN(C)CC3)C2)cc1F (configuration not stated)")
6.24
>>> reported("COCc1c(Br)cccc1NC(=O)CC(F)(F)F")
2.38
>>> reported("Cc1ccc([C@]2(O)CC[C@H]3CN(Cc4cccnc4)C[C@H]32)nc1")
-12.6
>>> reported("O=C(C1CCOC1)N1CCN(CC2CC2)c2ccccc21 (configuration not stated)")
8.93
>>> reported("Cc1cnn(C2CCCN(C(=O)CCCNc3ncccn3)C2)c1 (configuration not stated)")
-3.27
>>> reported("Cc1cc(CN2CCC3(CC2)COC(COc2ccccn2)C3)no1 (configuration not stated)")
5.8
>>> reported("N#CCCSc1sc2c(O)cc(O)nc2c1C#N")
-6.11
